Below: a set of entries, each annotated with reported Relative mRNA INFβ/GAPDH THP 1.
# Target under test: human HAQ STING isoform (hSTING HAQ) (Homo sapiens, UniProt Q86WV6, G230A/H232R/R293Q/R71H)
# Construct: THP1 cells express the naturally occurring human HAQ STING isoform (hSTING HAQ); host or cells: THP1
# Sequence (Q86WV6 whole entry R71H/G230A/H232R/R293Q, canonical isoform): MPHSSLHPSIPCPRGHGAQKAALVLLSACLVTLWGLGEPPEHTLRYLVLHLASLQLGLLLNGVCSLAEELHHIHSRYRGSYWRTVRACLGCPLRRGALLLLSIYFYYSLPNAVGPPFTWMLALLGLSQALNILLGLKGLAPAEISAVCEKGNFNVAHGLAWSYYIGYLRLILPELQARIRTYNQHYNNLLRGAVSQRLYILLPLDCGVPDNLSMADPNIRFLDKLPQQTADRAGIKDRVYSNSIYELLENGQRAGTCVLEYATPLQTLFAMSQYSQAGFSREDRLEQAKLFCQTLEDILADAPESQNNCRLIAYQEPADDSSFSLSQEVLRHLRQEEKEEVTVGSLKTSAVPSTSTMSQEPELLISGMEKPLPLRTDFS
# Procedure summary: IFN-β mRNA level in THP1 cells (qPCR, STING agonist cellular activity)
# Type: cell-based
# Measurement context: compound at 3.6 μM, 2 hrs, IFNβ expression normalized against GAPDH by the 2^-ΔΔCT method, DMSO = 1.0
Property measured: Relative mRNA INFβ/GAPDH THP 1

compound=Cc1cc(CN(Cc2cn3c4c(c(F)c(F)cc4c2=O)OCC3)[C@H]2CCCN(c3ccc(N)nc3)C2)ccn1 result=6763.7
compound=COc1cc(CN(Cc2cn3c4c(c(F)c(F)cc4c2=O)OCC3(C)C)[C@H]2CCCN(c3ccc(N)nc3)C2)ccn1 result=1202.3
compound="COc1cc(CN(Cc2cn3c4c(c(-c5ccncc5)c(F)cc4c2=O)OCC3C)[C@H]2CCCN(c3ccc(N)nc3)C2)ccn1 (stereo partly shown)" result=366.2
compound="COc1cc(CN(Cc2cn3c4c(c(F)c(F)cc4c2=O)OCC3C)[C@H]2CCCN(c3ccc(N)nc3)C2)ccn1 (stereo partly shown)" result=447.9

----------
# Target under test: human HAQ STING isoform (hSTING HAQ) (Homo sapiens, UniProt Q86WV6, G230A/H232R/R293Q/R71H)
# Construct: THP1 cells express the naturally occurring human HAQ STING isoform (hSTING HAQ); host or cells: THP1
# Procedure summary: IFN-β mRNA level in THP1 cells (qPCR, STING agonist cellular activity)
# Format: cell-based
# Measurement context: compound at 3.6 μM, 2 hrs, IFNβ expression normalized against GAPDH by the 2^-ΔΔCT method, DMSO = 1.0
Answer -1 if Relative mRNA INFβ/GAPDH THP 1 is under 70, and 1 if it is 70 or more.

molecule=COc1ccc(CN(Cc2cn3c4c(c(F)c(F)cc4c2=O)OCC3)[C@H]2CCCN(c3ccc(N)nc3)C2)c(OC)c1 classification=-1
molecule="COc1cc(CN(Cc2cn3c4c(c(N(C)C5CCCNC5)c(F)cc4c2=O)OCC3C)[C@H]2CCCN(c3ccc(N)nc3)C2)ccn1.Cl (stereo partly shown)" classification=-1
molecule=COc1cc(CN(Cc2cn3c4c(c(F)c(F)cc4c2=O)SCC3)[C@H]2CCCN(c3ccc(NCC4CC4)nc3)C2)ccn1 classification=1
molecule=Nc1ccc(N2CCC[C@H](N(Cc3ccc(Cl)nc3)Cc3cn4c5c(c(F)c(F)cc5c3=O)OCC4)C2)cn1 classification=-1
molecule="COc1cc(CN(Cc2cn3c4c(c(F)c(F)cc4c2=O)OCC3C)[C@H]2CCCN(c3cccnc3)C2)ccn1 (stereo partly shown)" classification=1
molecule="COc1cc(CN(Cc2cn3c4c(c(C)c(F)cc4c2=O)OCC3C)[C@H]2CCCN(c3ccc(N)nc3)C2)ccn1 (stereo partly shown)" classification=1
molecule="COc1cc(CN(Cc2cn3c4c(c(-c5ccc(CCO)cn5)c(F)cc4c2=O)OCC3C)[C@H]2CCCN(c3ccc(N)nc3)C2)ccn1 (stereo partly shown)" classification=-1
molecule="CCC1COc2c(F)c(F)cc3c(=O)c(CN(Cc4ccnc(OC)c4)[C@H]4CCCN(c5ccc(N)nc5)C4)cn1c23 (stereo partly shown)" classification=1
molecule="COc1cc(CN(Cc2cn3c4c(c(N5CC6CC(F)(F)CC6C5)c(F)cc4c2=O)OCC3C)[C@H]2CCCN(c3ccc(N)nc3)C2)ccn1 (stereo partly shown)" classification=1
molecule="COc1cc(CN(Cc2cn3c4c(c(F)c(F)cc4c2=O)OCC3C)[C@H]2CCCN(c3ccc(NC(C)=O)nc3)C2)ccn1 (stereo partly shown)" classification=-1
molecule="Cc1ccc(N2CCC[C@H](N(Cc3ccnc(C)c3)Cc3cn4c5c(c(O)c(F)cc5c3=O)OCC4C)C2)cn1 (stereo partly shown)" classification=-1
molecule=COc1cc(CN(Cc2cn3c4c(c(F)c(F)cc4c2=O)OCCC3)[C@H]2CCCN(c3ccc(N)nc3)C2)ccn1 classification=1
molecule="COc1cc(CN(Cc2cn3c4c(c(N5CCOCC5)c(F)cc4c2=O)OCC3C)[C@H]2CCCN(c3ccc(N)nc3)C2)ccn1 (stereo partly shown)" classification=1

----------
# Target under test: human HAQ STING isoform (hSTING HAQ) (Homo sapiens, UniProt Q86WV6, G230A/H232R/R293Q/R71H)
# Construct: THP1 cells express the naturally occurring human HAQ STING isoform (hSTING HAQ); host or cells: THP1
# Procedure summary: IFN-β mRNA level in THP1 cells (qPCR, STING agonist cellular activity)
# Type: cell-based
# Measurement context: compound at 3.6 μM, 2 hrs, IFNβ expression normalized against GAPDH by the 2^-ΔΔCT method, DMSO = 1.0
# Protocol: Cellular activity of STING agonists was determined by mRNA levels of IFN-β in THP1 (Otwo Biotech HTX1621) cell line. THP1 cells express the naturally occurring human HAQ STING isoform (hSTING HAQ), which responses to the activation of STING agonists. […]
Property measured: Relative mRNA INFβ/GAPDH THP 1

molecule="CNC1CCCN(c2c(F)cc3c(=O)c(CN(Cc4ccnc(OC)c4)[C@H]4CCCN(c5ccc(N)nc5)C4)cn4c3c2OCC4C)C1.Cl (stereo partly shown) [Compound 42]" numeric_readout=12.1
molecule="COc1cc(CN(Cc2cn3c4c(cc(F)c(F)c4c2=O)OCC3C)[C@H]2CCCN(c3ccc(N)nc3)C2)ccn1 (stereo partly shown) [Compound 52]" numeric_readout=178.2
molecule="COc1cc(CCN(Cc2cn3c4c(c(F)c(F)cc4c2=O)OCC3C)[C@H]2CCCN(c3ccc(N)nc3)C2)ccn1 (stereo partly shown) [Compound 8]" numeric_readout=5.7
molecule="CNc1ccc(N2CCC[C@H](N(Cc3ccnc(OC)c3)Cc3cn4c5c(c(F)c(F)cc5c3=O)OCC4C)C2)cn1 (stereo partly shown) [Compound 16]" numeric_readout=114.6
molecule="COc1cc(CN(Cc2cn3c4c(c(F)c(F)cc4c2=O)CCC3)[C@H]2CCCN(c3ccc(N)nc3)C2)ccn1 [Compound 67]" numeric_readout=7398.9
molecule="O=c1c(CN(Cc2ccncc2F)[C@H]2CCCN(c3cnccn3)C2)cn2c3c(c(F)c(F)cc13)OCC2 [Compound 87]" numeric_readout=1.2
molecule="Cc1cc(CN(Cc2cn3c4c(c(F)c(F)cc4c2=O)OCC3)[C@H]2CCCN(c3cnccn3)C2)ccn1 [Compound 83]" numeric_readout=1.2

----------
# Target under test: human HAQ STING isoform (hSTING HAQ) (Homo sapiens, UniProt Q86WV6, G230A/H232R/R293Q/R71H)
# Construct: THP1 cells express the naturally occurring human HAQ STING isoform (hSTING HAQ); host or cells: THP1
# Procedure summary: IFN-β mRNA level in THP1 cells (qPCR, STING agonist cellular activity)
# Assay type: cell-based
# Measurement context: compound at 3.6 μM, 2 hrs, IFNβ expression normalized against GAPDH by the 2^-ΔΔCT method, DMSO = 1.0
Property measured: Relative mRNA INFβ/GAPDH THP 1

molecule="COc1cc(CN(Cc2cn3c4c(c(OC)c(F)cc4c2=O)OCC3C)[C@H]2CCCN(c3ccc(N)nc3)C2)ccn1 (some centres unmarked)" property_measured="Relative mRNA INFβ/GAPDH THP 1" numeric_readout=356.0
molecule="COc1cc(CN(Cc2cn3c4c(c(N5CC6(COC6)C5)c(F)cc4c2=O)OCC3C)[C@H]2CCCN(c3ccc(N)nc3)C2)ccn1 (some centres unmarked)" property_measured="Relative mRNA INFβ/GAPDH THP 1" numeric_readout=986.1
molecule=O=c1c(CN(Cc2ccncn2)[C@H]2CCCN(c3cnccn3)C2)cn2c3c(c(F)c(F)cc13)OCC2 property_measured="Relative mRNA INFβ/GAPDH THP 1" numeric_readout=0.9
molecule=Nc1ccc(N2CCC[C@H](N(Cc3ccccc3F)Cc3cn4c5c(c(F)c(F)cc5c3=O)OCC4)C2)cn1 property_measured="Relative mRNA INFβ/GAPDH THP 1" numeric_readout=1.3
molecule="COc1cc(CN(Cc2cn3c4c(c(N5CCC(N)C5)c(F)cc4c2=O)OCC3C)[C@H]2CCCN(c3ccc(N)nc3)C2)ccn1.Cl (some centres unmarked)" property_measured="Relative mRNA INFβ/GAPDH THP 1" numeric_readout=54.8
molecule=Nc1ccc(N2CCC[C@H](N(Cc3ccccc3)Cc3cn4c5c(c(F)c(F)cc5c3=O)OCC4)C2)cn1 property_measured="Relative mRNA INFβ/GAPDH THP 1" numeric_readout=31.9
molecule="COc1cc(CN(Cc2cn3c4c(c(O)c(F)cc4c2=O)OCC3C)[C@H]2CCCN(c3ccc(N)nc3)C2)ccn1 (some centres unmarked)" property_measured="Relative mRNA INFβ/GAPDH THP 1" numeric_readout=2.5
molecule="Cc1cc(CN(Cc2cn3c4c(c(F)c(F)cc4c2=O)OCC3C)[C@H]2CCCN(c3ccc(C#N)nc3)C2)ccn1 (some centres unmarked)" property_measured="Relative mRNA INFβ/GAPDH THP 1" numeric_readout=14.1
molecule="COc1cc(CN(Cc2cn3c4c(c(N5CCN(C)C(C)C5)c(F)cc4c2=O)OCC3C)[C@H]2CCCN(c3ccc(N)nc3)C2)ccn1 (some centres unmarked)" property_measured="Relative mRNA INFβ/GAPDH THP 1" numeric_readout=814.9
molecule="COc1cc(CN(Cc2cn3c4c(c(N5CCCCC5)c(F)cc4c2=O)OCC3C)[C@H]2CCCN(c3ccc(N)nc3)C2)ccn1 (some centres unmarked)" property_measured="Relative mRNA INFβ/GAPDH THP 1" numeric_readout=1530.0
molecule=Nc1ccc(N2CCC[C@H](N(Cc3ccncc3)Cc3cn4c5c(c(F)c(F)cc5c3=O)OCC4)C2)cn1 property_measured="Relative mRNA INFβ/GAPDH THP 1" numeric_readout=6236.9
molecule="COc1cc(CN(Cc2cn3c4c(c(F)c(F)cc4c2=O)OCC3C)[C@H]2CCCN(c3ccc(N(C)C)nc3)C2)ccn1 (some centres unmarked)" property_measured="Relative mRNA INFβ/GAPDH THP 1" numeric_readout=2625.9
molecule="COc1cc(CN(Cc2cn3c4c(c(Br)c(F)cc4c2=O)OCC3C)[C@H]2CCCN(c3ccc(N)nc3)C2)ccn1 (some centres unmarked)" property_measured="Relative mRNA INFβ/GAPDH THP 1" numeric_readout=655.0
molecule=CNC(=O)c1cc(CN(Cc2cn3c4c(c(F)c(F)cc4c2=O)OCC3)[C@H]2CCCN(c3cnccn3)C2)ccn1 property_measured="Relative mRNA INFβ/GAPDH THP 1" numeric_readout=1.0
